Source listed as patent EP4755880A1.

Provide the recorded log10 AUC(0-t) for the entries that follow.
method: Pharmacokinetics in mice after intravenous injection or gavage
stated.conditions: BALB/c, mouse, plasma, po, 5 mg/kg
Form field - Quantity: AUC(0-t); Unit: ng·h/mL; Scale: log10

For orientation, consider the following solved cases.
cpd.smiles: CNC(=O)c1ccc(N2CCN(Cc3cc(-c4ccccc4)c4nc(C)c(=O)[nH]c4c3)CC2)c(F)n1
log10 AUC(0-t): 3.93
--
cpd.smiles: CNC(=O)c1ccc(N2CCN(Cc3cc(OC(F)F)c4nc(C)c(=O)[nH]c4c3)CC2)c(F)n1
log10 AUC(0-t): 4.53
--
cpd.smiles: CNC(=O)c1ccc(N2CCN(Cc3cc(OC(C)C)c4nc(C)c(=O)[nH]c4c3)CC2)c(F)n1
log10 AUC(0-t): 3.69

List the reported log10 AUC(0-t) of each compound below.
1. CNC(=O)c1ccc(N2CCN(Cc3cc(OC(F)F)c4nc(C)c(=O)[nH]c4c3F)CC2)c(F)n1
2. CC#Cc1cc(CN2CCN(c3ccc(C(=O)NC)nc3F)CC2)cc2[nH]c(=O)c(C)nc12
3. Cc1nc2c(OC(F)F)cc(CN3CC=C(c4ccc(C(=O)NC5CC5)nc4F)CC3)cc2[nH]c1=O

Key:
1. 4.21
2. 3.80
3. 4.79
